# TGI values compiled below
# Test system: SK-MEL-2 melanoma
# Experiment notes: NCI tumour cell line growth inhibition, 48 h

{"columns": ["Compound structure", "Target entity", "Unit tag", "Rel", "TGI"],
 "data": [
  ["O=C(CSC(=S)N1CCCCC1)Nc1nc2c(s1)CCCC2", "SK-MEL-2 melanoma", "µM", ">", 100],
  ["C[N+](C)(CCCn1ccnc1[N+](=O)[O-])CCCn1ccnc1[N+](=O)[O-]", "SK-MEL-2 melanoma", "µM", ">", 100],
  ["COc1ccc(N2CN3OC(=O)N(c4ccc(OC)cc4)[C@@]3(c3ccccc3)C2)cc1", "SK-MEL-2 melanoma", "µM", "=", 45.1],
  ["O=[N+]([O-])c1cnc(Sc2ccncn2)s1", "SK-MEL-2 melanoma", "µM", "=", 21.9],
  ["Cc1cccc2oc3c(CC(=O)O)cccc3c(=O)c12", "SK-MEL-2 melanoma", "µM", "=", 17.4]
]}

Origin of measurements: PubChem BioAssay (NCI)
